- assay.system: Matrix metalloproteinase-9 (Homo sapiens)
- Sequence (P14780 whole entry): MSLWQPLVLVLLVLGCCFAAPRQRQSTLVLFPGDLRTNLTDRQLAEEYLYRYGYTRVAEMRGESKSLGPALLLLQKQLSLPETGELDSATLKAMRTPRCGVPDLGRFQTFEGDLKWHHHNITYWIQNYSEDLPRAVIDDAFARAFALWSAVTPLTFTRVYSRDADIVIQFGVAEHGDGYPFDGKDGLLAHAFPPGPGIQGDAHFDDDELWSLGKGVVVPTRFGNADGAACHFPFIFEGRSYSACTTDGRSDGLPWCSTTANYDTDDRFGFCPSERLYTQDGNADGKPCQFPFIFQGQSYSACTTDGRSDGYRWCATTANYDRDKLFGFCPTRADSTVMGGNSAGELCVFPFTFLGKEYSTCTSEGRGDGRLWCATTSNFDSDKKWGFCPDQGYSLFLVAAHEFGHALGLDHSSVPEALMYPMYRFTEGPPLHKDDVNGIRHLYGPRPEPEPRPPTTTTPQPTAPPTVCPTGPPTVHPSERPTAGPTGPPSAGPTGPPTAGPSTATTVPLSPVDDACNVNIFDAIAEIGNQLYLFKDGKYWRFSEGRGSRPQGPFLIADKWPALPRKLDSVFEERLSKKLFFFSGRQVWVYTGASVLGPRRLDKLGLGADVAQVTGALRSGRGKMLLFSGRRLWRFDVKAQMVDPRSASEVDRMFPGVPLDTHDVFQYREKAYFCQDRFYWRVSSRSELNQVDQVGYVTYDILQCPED
experimental.endpoint: pIC50
Would you please state pIC50, meaning minus log10 of the concentration in mol/L, as a bare number?

{"columns": ["smiles.str", "result"],
 "data": [
  ["CC(C)C[C@H](C(=O)NO)N(Cc1ccccc1)[P@](C)(=O)c1ccccc1", 7.69]
]}

Field: next compound
Sure, the documented pIC50 for `C[C@H](C(=O)NO)N(Cc1ccccc1)[P@](C)(=O)c1ccccc1` is 7.49

----------
- assay.system: Interstitial collagenase (Homo sapiens)
- Sequence (P03956 whole entry): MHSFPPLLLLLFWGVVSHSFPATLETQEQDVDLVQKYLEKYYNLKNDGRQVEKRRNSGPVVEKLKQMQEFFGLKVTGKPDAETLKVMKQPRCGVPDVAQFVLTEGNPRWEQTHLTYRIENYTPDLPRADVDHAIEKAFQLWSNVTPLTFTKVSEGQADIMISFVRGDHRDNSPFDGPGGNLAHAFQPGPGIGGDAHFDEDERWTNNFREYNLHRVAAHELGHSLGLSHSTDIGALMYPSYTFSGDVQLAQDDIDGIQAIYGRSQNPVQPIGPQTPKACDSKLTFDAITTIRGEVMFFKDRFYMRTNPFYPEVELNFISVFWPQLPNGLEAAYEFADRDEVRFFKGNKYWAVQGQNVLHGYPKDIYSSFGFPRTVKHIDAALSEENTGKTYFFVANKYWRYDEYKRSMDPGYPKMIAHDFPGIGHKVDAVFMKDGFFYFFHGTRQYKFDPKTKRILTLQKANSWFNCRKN
Examples of molecules with documented IC50 follow.
Numeric answer only, unit µM assumed.

Recorded IC50, per entry:
{"columns": ["molecule", "result"],
 "data": [
  ["CCCCCCN([C@H](C)C(=O)NO)[P@](C)(=O)c1ccccc1", 1.29],
  ["C[C@H](C(=O)NO)N(Cc1ccccc1)P(=O)(c1ccccc1)c1ccccc1", 6.79],
  ["CC(C)C[C@H](C(=O)NO)N(Cc1ccccc1)[P@](C)(=O)c1ccccc1", 0.0205],
  ["CC(C)C[C@H](C(=O)NO)N(Cc1ccccc1)[P@@](C)(=O)c1ccccc1", 7.12],
  ["C[C@H](C(=O)NO)N(Cc1ccccc1)[P@](C)(=O)c1ccccc1", 0.12]
]}

Quick note, IC50 for `CC[P@@](=O)(c1ccccc1)N(Cc1ccccc1)[C@H](C)C(=O)NO` landed at 33.3

Per the records, this molecule ( CCP(=O)(c1ccccc1)N(Cc1ccccc1)[C@H](C)C(=O)NO (some centres not stated) ) has IC50 equal to 0.608

Measured IC50, `C[P@@](=O)(c1ccccc1)N(CCc1ccccc1)CC(=O)NO` : 0.525

IC50 in this record for `O=C(CN(CCc1ccccc1)P(=O)(c1ccccc1)c1ccccc1)NO` : 0.854

Measured IC50, `CC(C)C[C@H](C(=O)NO)N(Cc1ccccc1)P(C)(C)=O` : 0.518

Just so you know, measured IC50 for `CC(C)C[C@@H](N[P@](C)(=O)c1ccccc1)C(=O)NO` came out at 2.51
